Target: rat α3β3γ2 GABAA receptor (α3GABAA) (Rattus norvegicus, UniProt P18508+P20236)
Construct: Full-length subunits co-expressed; pentamer; with Gamma-aminobutyric acid receptor subunit beta-3
Sequence (P20236 29-493, one chain of several): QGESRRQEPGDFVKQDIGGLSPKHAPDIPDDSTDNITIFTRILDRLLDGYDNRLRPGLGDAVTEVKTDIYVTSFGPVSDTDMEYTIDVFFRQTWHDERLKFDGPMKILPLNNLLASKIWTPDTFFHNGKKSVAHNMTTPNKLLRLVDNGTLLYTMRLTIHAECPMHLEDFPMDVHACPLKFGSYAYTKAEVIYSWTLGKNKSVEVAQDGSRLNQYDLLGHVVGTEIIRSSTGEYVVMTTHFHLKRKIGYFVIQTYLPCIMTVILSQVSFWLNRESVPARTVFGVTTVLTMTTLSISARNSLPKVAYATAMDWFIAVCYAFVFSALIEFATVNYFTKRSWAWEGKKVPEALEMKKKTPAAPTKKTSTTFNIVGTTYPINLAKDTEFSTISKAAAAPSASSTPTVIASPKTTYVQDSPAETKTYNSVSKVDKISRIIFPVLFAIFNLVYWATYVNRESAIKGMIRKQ
Assay: [3H]flunitrazepam displacement, HEK […] membranes, filtration
Conditions: read-out: α3

smiles notation: C#Cc1ccc2c(c1)C(c1ccccc1Cl)=NCc1nnc(C)n1-2
Ki / nM: 4.2

###

Target: rat α2β3γ2 GABAA receptor (α2GABAA) (Rattus norvegicus, UniProt P18508+P23576)
Construct: Full-length subunits co-expressed; pentamer; with Gamma-aminobutyric acid receptor subunit beta-3
Sequence (P23576 29-451): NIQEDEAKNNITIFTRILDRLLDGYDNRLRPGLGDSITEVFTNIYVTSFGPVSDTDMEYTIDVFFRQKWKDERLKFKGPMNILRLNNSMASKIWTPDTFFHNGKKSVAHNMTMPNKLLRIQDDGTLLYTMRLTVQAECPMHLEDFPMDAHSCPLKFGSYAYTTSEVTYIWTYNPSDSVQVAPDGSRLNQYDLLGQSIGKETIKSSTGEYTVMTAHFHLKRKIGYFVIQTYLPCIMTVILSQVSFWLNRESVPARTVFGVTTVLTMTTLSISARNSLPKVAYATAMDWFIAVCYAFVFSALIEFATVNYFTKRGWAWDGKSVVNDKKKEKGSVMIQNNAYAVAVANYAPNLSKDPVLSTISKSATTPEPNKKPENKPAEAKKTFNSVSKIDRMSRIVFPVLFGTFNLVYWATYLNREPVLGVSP
Sequence (P18508 39-466): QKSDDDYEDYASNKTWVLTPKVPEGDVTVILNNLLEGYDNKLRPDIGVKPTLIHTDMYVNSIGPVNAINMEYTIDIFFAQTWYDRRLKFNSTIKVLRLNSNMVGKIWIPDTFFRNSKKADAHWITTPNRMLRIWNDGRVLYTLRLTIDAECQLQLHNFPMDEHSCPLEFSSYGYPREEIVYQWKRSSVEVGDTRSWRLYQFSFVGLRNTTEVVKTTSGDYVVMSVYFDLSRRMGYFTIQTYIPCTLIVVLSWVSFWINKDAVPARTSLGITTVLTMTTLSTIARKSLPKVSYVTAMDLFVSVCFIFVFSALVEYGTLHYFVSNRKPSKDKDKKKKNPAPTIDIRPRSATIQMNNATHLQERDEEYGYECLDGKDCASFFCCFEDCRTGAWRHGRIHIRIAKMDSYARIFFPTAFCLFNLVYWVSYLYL
Sequence (P63079 26-473 partner): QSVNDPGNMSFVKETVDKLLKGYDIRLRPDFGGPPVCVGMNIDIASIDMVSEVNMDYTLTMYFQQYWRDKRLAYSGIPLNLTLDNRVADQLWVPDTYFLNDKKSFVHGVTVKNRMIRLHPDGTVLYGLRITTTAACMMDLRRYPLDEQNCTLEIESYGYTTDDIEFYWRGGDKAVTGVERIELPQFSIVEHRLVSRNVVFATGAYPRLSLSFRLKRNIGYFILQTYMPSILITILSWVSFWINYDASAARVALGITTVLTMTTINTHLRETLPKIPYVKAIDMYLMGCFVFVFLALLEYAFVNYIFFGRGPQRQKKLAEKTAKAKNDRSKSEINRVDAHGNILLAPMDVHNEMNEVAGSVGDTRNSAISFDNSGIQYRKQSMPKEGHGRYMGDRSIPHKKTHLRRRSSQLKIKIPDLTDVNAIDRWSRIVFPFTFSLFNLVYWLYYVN
Experiment: two-electrode voltage clamp, Xenopus oocytes, potentiation of GABA EC3 current
Details: read-out: α2
test readout: EC50 (nM)

smiles notation: C#Cc1ccc2c(c1)C(c1ccccc1Cl)=NCc1nnc(C)n1-2
test readout: EC50
units: nM
reported: 20.7

###

Biological target: rat α1β3γ2 GABAA receptor (α1GABAA) (Rattus norvegicus, UniProt P18508+P62813)
Construct: Full-length subunits co-expressed; pentamer; with Gamma-aminobutyric acid receptor subunit beta-3
Sequence (P62813 28-455): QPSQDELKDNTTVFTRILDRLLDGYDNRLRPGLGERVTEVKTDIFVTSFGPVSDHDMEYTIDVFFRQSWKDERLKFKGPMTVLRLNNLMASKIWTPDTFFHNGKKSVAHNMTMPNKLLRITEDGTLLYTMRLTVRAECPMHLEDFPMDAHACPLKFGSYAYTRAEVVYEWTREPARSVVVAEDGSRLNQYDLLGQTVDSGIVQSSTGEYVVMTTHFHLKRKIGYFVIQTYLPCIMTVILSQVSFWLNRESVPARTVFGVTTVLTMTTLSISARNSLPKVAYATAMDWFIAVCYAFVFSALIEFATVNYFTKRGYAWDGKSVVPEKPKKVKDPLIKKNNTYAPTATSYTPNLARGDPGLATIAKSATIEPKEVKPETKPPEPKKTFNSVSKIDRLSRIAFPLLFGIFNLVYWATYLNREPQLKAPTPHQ
Sequence (P18508 39-466): as the sequence (P18508 39-466) above
Sequence (P63079 26-473 partner): as the sequence (P63079 26-473 partner) above
Assay: [3H]flunitrazepam displacement, HEK […] membranes, filtration
Conditions: read-out: α1

smiles notation: C#Cc1ccc2c(c1)C(c1ccccc1Cl)=NCc1nnc(C)n1-2
system tested: rat α1β3γ2 GABAA receptor (α1GABAA) (Rattus norvegicus, UniProt P18508+P62813)
Ki, nM: 7.7

###

Molecular target: rat α5β3γ2 GABAA receptor (α5GABAA) (Rattus norvegicus, UniProt P18508+P19969)
Construct: Full-length subunits co-expressed; pentamer; with Gamma-aminobutyric acid receptor subunit beta-3
Sequence (P19969 26-464, one chain of several): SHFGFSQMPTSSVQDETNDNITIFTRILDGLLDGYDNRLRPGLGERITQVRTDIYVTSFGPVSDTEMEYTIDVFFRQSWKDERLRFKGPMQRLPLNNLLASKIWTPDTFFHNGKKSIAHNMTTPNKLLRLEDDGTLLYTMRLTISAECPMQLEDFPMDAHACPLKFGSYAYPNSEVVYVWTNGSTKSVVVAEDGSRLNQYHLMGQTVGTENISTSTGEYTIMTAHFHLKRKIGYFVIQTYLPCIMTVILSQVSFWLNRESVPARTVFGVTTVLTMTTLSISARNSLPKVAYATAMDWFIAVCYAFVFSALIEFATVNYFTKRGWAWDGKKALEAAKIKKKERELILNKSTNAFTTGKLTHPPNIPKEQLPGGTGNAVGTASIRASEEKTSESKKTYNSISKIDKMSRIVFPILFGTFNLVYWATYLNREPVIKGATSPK
Test: [3H]flunitrazepam displacement, HEK […] membranes, filtration
Conditions: read-out: α5

smiles notation: C#Cc1ccc2c(c1)C(c1ccccc1Cl)=NCc1nnc(C)n1-2
Ki / nM: 3.8
